Values compiled from patent US20080200454A1.

The entries below are paired with their reported pIC50.
- test.target: Recombinant human cathepsin S (CatS) (Homo sapiens)
- assay.comment: Recombinant human cathepsin S (CatS) inhibition assay, fluorogenic substrate Z-Valine-Valine-Arginine-AMC
pIC50 (log units): -log10 of the concentration in mol/L.

Some solved cases for reference:
COC(=O)CNCc1cc(C#Cc2cc(-c3nn(CCCN4CCOC[C@@H]4C)c4c3CN(C(=O)C(N)=O)CC4)ccc2Cl)ccc1Cl :: 7.70
CS(=O)(=O)N1CCc2c(c(-c3ccc(Cl)c(CCCCN4CCCCC4)c3)nn2CCCN2CCC(N3CCCC3=O)CC2)C1 :: 5.52
CN1CCN(CCCc2cc(-c3nn(CCCN4CCC(N5CCCC5=O)CC4)c4c3CN(S(C)(=O)=O)CC4)ccc2Cl)CC1 :: 5.35
C[C@H]1COCCN1CCCn1nc(-c2ccc(Cl)c(C#Cc3ccc(Cl)c(CNC[C@@H]4CCCO4)c3)c2)c2c1CCN(C(=O)C(N)=O)C2 :: 8.00
NC(=O)C(=O)N1CCc2c(c(-c3ccc(Cl)c(C#Cc4ccc(Cl)c(C(=O)NCC5CCCNC5)c4)c3)nn2CCCN2CCSCC2)C1 (centres unmarked) :: 7.70

Task: For the molecule CS(=O)(=O)N1CCc2c(c(-c3ccc(Cl)c(C#Cc4ccc(CN[C@@H](CO)c5ccccc5)cc4)c3)nn2CCCN2CCC(N3CCCC3=O)CC2)C1 , what pIC50 is on record?
Output: 7.70

Task: # iterate: CS(=O)(=O)N1CCc2c(c(-c3ccc(Cl)c(/C=C/c4ccccc4)c3)nn2CCCN2CCOCC2)C1
Output: 5.55

Task: Now try COc1ccc(CNCc2ccc(C#Cc3cc(-c4nn(CCCN5CCOCC5)c5c4CN(S(C)(=O)=O)CC5)ccc3Cl)cc2)cc1 .
Output: 6.64

Task: Thanks! And CS(=O)(=O)N1CCc2c(c(-c3ccc(Cl)c(CCCNS(=O)(=O)c4ccccc4[N+](=O)[O-])c3)nn2CCCN2CCC(N3CCCC3=O)CC2)C1 ?
Output: 6.54

Task: Ok, now CS(=O)(=O)N1CCc2c(c(-c3ccc(Cl)c(CCc4ccc(CO)cc4)c3)nn2CCCN2CCOCC2)C1
Output: 6.70

Task: For CC1COCCN1CCCn1nc(-c2ccc(Cl)c(C#Cc3ccc(Cl)c(CNCC(=O)O)c3)c2)c2c1CCN(C(N)=O)C2 (stereo in doubt) then?
Output: 7.70

Task: What would you report for CS(=O)(=O)N1CCc2c(c(-c3ccc(Cl)c(C#CCCO)c3)nn2CCCN2CCOCC2)C1 ?
Output: 5.32

Task: Could you do the same for NC(=O)C(=O)N1CCc2c(c(-c3ccc(Cl)c(C#Cc4ccc(CN[C@@H]5CCCc6ccccc65)cc4)c3)nn2CCCN2CCOCC2)C1 , please?
Output: 7.15

---

- test.target: Recombinant human cathepsin S (CatS) (Homo sapiens, UniProt P25774)
- Sequence (P25774 115-331): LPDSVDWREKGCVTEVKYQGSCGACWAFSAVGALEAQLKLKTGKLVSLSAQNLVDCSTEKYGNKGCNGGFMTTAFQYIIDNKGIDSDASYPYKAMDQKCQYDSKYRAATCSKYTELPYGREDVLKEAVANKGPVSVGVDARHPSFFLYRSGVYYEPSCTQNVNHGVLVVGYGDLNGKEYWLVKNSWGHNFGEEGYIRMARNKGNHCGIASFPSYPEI
- assay.comment: Recombinant human cathepsin S (CatS) inhibition assay, fluorogenic substrate Z-Valine-Valine-Arginine-AMC
pIC50: −log10 of the molar value.
# label = label 1 if pIC50 >= 7 else label 0

CS(=O)(=O)N1CCc2c(c(-c3ccc(Cl)c(C#Cc4cnc5c(c4)CNCC5)c3)nn2CCCN2CCOCC2)C1 :: label 0
CCNCc1cc(C#Cc2cc(-c3nn(CCCN4CCCCC4)c4c3CN(C(=O)C(N)=O)CC4)ccc2Cl)ccc1Cl :: label 1
COC(=O)C(=O)N1CCc2c(c(-c3ccc(Cl)c(C#Cc4ccc(Cl)cc4)c3)nn2CCCN2CCOCC2)C1 :: label 1
NC(=O)C(=O)N1CCc2c(c(-c3ccc(Cl)c(C#Cc4ccc(Cl)c(C(=O)NC[C@@H]5CCNC5)c4)c3)nn2CCCN2CCSCC2)C1 :: label 1
CS(=O)(=O)N1CCc2c(c(-c3ccc(Cl)c(CCCCCO)c3)nn2CCCN2CCOCC2)C1 :: label 0

Task: Determine whether this compound has pIC50 no lower than 7: NC(=O)C(=O)N1CCc2c(c(-c3ccc(Cl)c(C#Cc4ccc5c(c4)CN(Cc4ccc(Cl)cc4)CC5)c3)nn2CCCN2CCOCC2)C1
Output: label 1

Task: Same question, CS(=O)(=O)N1CCc2c(c(-c3ccc(Cl)c(C#Cc4ccc(Cl)c(C(=O)NCCN5CCOCC5)c4)c3)nn2CCCN2CCCCC2)C1 this time
Output: label 1

Task: Entry CN1CCC(C2CCN(C[C@H](O)Cn3nc(-c4ccc(Cl)c(C#Cc5ccc(Cl)cc5)c4)c4c3CCN(S(C)(=O)=O)C4)CC2)CC1 please
Output: label 1

Task: Also O=C(N1CCOCC1)N1CCc2c(c(-c3ccc(Cl)c(C#Cc4ccc(CNCc5ccc(Cl)cc5)cc4)c3)nn2CCCN2CCOCC2)C1 , if possible.
Output: label 0

Task: Same question, CS(=O)(=O)N1CCc2c(c(-c3ccc(Cl)c(C#Cc4ccc(CNCc5ccc(Cl)cc5)cc4)c3)nn2CCCN2CCOC(CO)C2)C1 (stereo not shown) this time
Output: label 0

---

- test.target: Recombinant human cathepsin S (CatS) (Homo sapiens, UniProt P25774)
- assay.comment: Recombinant human cathepsin S (CatS) inhibition assay, fluorogenic substrate Z-Valine-Valine-Arginine-AMC
- measurement.conditions: CatS IC50
measure.name: IC50 (nM)
Your answer should be a plain number; it is taken to be in nM.

CS(=O)(=O)N1CCc2c(c(-c3ccc(Cl)c(C#Cc4ccc5c(c4)CN[C@H](C(=O)N4CCOCC4)C5)c3)nn2CCCN2CCOCC2)C1 [Example 194] :: 20
CS(=O)(=O)N1CCc2c(c(-c3ccc(Cl)c(C#Cc4ccc(CNCc5ccc(Cl)cc5)cc4)c3)nn2CCCN2CCNC(=O)C2)C1 [Example 397] :: 510

// moving on: another record for IC50
Task: // query IC50 value for entry CN(Cc1ccccc1)Cc1cccc(C#Cc2cc(-c3nn(CCCN4CCOCC4)c4c3CN(S(C)(=O)=O)CC4)ccc2Cl)c1 [Example 528]
Output: 580

---

- test.target: Recombinant human cathepsin S (CatS) (Homo sapiens)
- assay.comment: Recombinant human cathepsin S (CatS) inhibition assay, fluorogenic substrate Z-Valine-Valine-Arginine-AMC
- measurement.conditions: CatS IC50
Listing of recorded IC50 by entry.
Give the number; nM is assumed, so skip it.

CS(=O)(=O)N1CCc2c(c(-c3ccc(Cl)c(C#Cc4ccccc4CN)c3)nn2CCCN2CCOCC2)C1 [Example 385] :: 2720
CS(=O)(=O)N1CCc2c(c(-c3ccc(Cl)c(C#Cc4ccc(CNCc5ccc(Cl)cc5)cc4)c3)nn2CCCN2CCC(O)CC2)C1 [Example 330] :: 90
CN(Cc1ccc(Cl)cc1)Cc1ccc(C#Cc2cc(-c3nn(CCCN4CCN(c5ccccc5)CC4)c4c3CN(S(C)(=O)=O)CC4)ccc2Cl)cc1 [Example 490] :: 70

Now let's try a different one.
Task: Fill in the blank: the reported IC50 of CS(=O)(=O)N1CCc2c(c(-c3ccc(Cl)c(C#Cc4ccc5c(c4)CNC5)c3)nn2CCCN2CCOCC2)C1 [Example 393] is ____.
Output: 220

---

- test.target: Recombinant human cathepsin S (CatS) (Homo sapiens, UniProt P25774)
- assay.comment: Recombinant human cathepsin S (CatS) inhibition assay, fluorogenic substrate Z-Valine-Valine-Arginine-AMC
- measurement.conditions: CatS IC50
# pIC50 annotations
Remember the convention: pIC50 equals -log10 of concentration in molar.

CC(=O)OCC(=O)N1CCc2c(c(-c3ccc(Cl)c(C#Cc4ccc(Cl)cc4)c3)nn2CCCN2CCOCC2)C1 :: 6.55
NC(=O)N1CCc2c(c(-c3ccc(Cl)c(C#Cc4ccc(Cl)c(CNC5CC5)c4)c3)nn2CCCN2CCSCC2)C1 :: 7.40
CS(=O)(=O)N1CCc2c(c(-c3ccc(Cl)c(C#Cc4ccc(CNCc5nccs5)cc4)c3)nn2CCCN2CCOCC2)C1 :: 6.92

Task: # input compound: NC(=O)N1CCc2c(c(-c3ccc(Cl)c(C#Cc4ccc(Cl)c(C(=O)N5CCCC5)c4)c3)nn2CCCN2CCSCC2)C1 ; wanted: its pIC50
Output: 6.59

---

- test.target: Recombinant human cathepsin S (CatS) (Homo sapiens, UniProt P25774)
- assay.comment: Recombinant human cathepsin S (CatS) inhibition assay, fluorogenic substrate Z-Valine-Valine-Arginine-AMC;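 further: Baculovirus-expressed CatS in pH 5.0 sodium acetate buffer with DTT and NaCl, fluorescence read each minute over 20 min, inhibition derived from rate slope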
measure.name: pIC50
Recall that pIC50 is obtained by taking minus log10 of the concentration measured in molar.

CS(=O)(=O)N1CCc2c(c(-c3ccc(Cl)c(CCc4ccccc4)c3)nn2CCCN2CCOCC2)C1 [Example 62] :: 5.91

Task: Give the reported pIC50 for CS(=O)(=O)N1CCc2c(c(-c3ccc(Cl)c(C#Cc4ccc(CNCc5ccc(Cl)c(Cl)c5)cc4)c3)nn2CCCN2CCOCC2)C1 [Example 212] (system: Recombinant human cathepsin S (CatS) (Homo sapiens, UniProt P25774)).
Output: 7.10

Task: Note, next up: C[C@H]1COCCN1CCCn1nc(-c2ccc(Cl)c(C#Cc3ccc(Cl)c(CNCc4ccccc4)c3)c2)c2c1CCN(C(=O)C(N)=O)C2 [Example 285]
Output: 7.70
